- System under test: PI3K-α (PIK3CA) H1047R mutant, p110α/p85α complex (Homo sapiens, UniProt P42336, H1047R)
- Construct: Recombinant, catalytically active human full length PIK3KA Wild-type and H1047R mutant; 6×His (N); purchased EMD Millipore Sigma 14-792M
- Sequence (P42336 whole entry H1047R): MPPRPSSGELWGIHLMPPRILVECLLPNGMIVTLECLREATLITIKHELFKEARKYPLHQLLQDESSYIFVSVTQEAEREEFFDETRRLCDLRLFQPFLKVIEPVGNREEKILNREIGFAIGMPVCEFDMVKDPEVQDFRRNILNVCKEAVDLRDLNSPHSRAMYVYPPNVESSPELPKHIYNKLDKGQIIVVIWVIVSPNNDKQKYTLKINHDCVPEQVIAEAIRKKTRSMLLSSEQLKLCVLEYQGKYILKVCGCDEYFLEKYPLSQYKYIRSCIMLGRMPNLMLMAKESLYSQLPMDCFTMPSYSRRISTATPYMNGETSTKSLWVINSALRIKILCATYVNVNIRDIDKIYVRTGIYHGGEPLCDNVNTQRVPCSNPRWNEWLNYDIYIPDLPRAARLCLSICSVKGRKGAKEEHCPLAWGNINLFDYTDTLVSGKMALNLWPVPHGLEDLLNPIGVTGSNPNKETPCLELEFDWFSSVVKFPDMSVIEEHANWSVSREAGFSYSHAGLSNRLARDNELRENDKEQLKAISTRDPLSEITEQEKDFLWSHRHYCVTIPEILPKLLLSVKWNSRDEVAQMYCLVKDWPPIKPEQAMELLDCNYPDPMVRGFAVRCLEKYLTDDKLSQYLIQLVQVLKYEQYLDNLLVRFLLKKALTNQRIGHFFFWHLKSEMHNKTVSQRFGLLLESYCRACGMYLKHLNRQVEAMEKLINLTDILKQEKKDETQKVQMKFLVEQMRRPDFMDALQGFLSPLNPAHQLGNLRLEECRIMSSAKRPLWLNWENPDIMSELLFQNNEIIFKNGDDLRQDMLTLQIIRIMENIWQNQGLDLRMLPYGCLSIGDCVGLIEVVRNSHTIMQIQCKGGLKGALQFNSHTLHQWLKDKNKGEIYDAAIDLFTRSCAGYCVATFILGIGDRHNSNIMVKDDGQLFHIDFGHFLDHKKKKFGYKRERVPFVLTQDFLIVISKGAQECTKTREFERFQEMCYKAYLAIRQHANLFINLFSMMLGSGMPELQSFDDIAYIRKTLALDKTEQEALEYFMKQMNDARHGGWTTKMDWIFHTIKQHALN
- Sequence (P27986 whole entry partner): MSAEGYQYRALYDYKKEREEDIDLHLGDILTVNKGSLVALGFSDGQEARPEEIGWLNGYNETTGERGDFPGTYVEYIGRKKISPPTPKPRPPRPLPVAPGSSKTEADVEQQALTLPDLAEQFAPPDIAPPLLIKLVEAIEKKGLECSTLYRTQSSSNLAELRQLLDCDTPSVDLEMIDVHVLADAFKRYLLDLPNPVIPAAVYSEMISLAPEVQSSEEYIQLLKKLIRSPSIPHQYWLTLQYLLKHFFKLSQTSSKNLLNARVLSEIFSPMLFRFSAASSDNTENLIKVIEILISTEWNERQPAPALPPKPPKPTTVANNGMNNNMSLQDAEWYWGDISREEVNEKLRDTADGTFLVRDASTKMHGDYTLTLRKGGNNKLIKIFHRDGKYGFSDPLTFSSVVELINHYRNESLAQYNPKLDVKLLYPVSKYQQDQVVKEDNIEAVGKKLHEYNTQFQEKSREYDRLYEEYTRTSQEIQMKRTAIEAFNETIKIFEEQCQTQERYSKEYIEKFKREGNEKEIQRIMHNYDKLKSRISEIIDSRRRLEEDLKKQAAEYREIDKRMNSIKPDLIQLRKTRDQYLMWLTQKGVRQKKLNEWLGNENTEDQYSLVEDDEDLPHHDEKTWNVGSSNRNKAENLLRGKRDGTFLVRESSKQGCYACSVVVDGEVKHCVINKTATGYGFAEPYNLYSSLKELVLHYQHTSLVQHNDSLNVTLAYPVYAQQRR
- Test description: PI3K-alpha kinase (PIK3CA) biochemical activity, ADP-Glo, H1047R mutant
- Test parameters: Soy PI lipid substrate
pIC50: −log10 of the molar value.
# pIC50 per record follows

Cc1cc(C(C)Nc2ccccc2C(=O)O)c2oc(-c3cc4cn(C)nc4cn3)cc(=O)c2c1 (single isomer, unassigned): > 6.30

Fill in pIC50 for Cc1cc(C(C)Nc2ccccc2C(=O)O)c2oc(-c3cnc4c(c3)OCCO4)cc(=O)c2c1 (single isomer, unassigned) tested with PI3K-α (PIK3CA) H1047R mutant, p110α/p85α complex (Homo sapiens, UniProt P42336, H1047R).
> 6.30

State pIC50 on PI3K-α (PIK3CA) H1047R mutant, p110α/p85α complex (Homo sapiens, UniProt P42336, H1047R). Entry: Cc1cc(C(C)Nc2ccccc2C(=O)O)c2oc(-c3ccc4nccn4n3)cc(=O)c2c1 (single isomer, unassigned) [Example 35]
5.00 to 5.30

Check PI3K-α (PIK3CA) H1047R mutant, p110α/p85α complex (Homo sapiens, UniProt P42336, H1047R) data and give pIC50 for Cc1cc(C(C)Nc2ccccc2C(=O)O)c2oc(-c3ccc4nc(C)sc4n3)cc(=O)c2c1 (single isomer, unassigned) .
> 6.30

For PI3K-α (PIK3CA) H1047R mutant, p110α/p85α complex (Homo sapiens, UniProt P42336, H1047R), give pIC50 of the listed molecule: Cc1cc(C(C)Nc2ccccc2C(=O)O)c2oc(-c3cc4cccnc4cn3)cc(=O)c2c1 (single isomer, unassigned)
> 6.30

Look up and report measured pIC50 (PI3K-α (PIK3CA) H1047R mutant, p110α/p85α complex (Homo sapiens, UniProt P42336, H1047R)) for the following molecule: Cc1cc([C@@H](C)Nc2ccccc2C(=O)O)c2oc(-c3cc(C(F)(F)F)c4nn(C)cc4c3)cc(=O)c2c1
> 6.30

Give pIC50 only, for Cc1cc(C(C)Nc2ccc(Cl)nc2C(=O)O)c2oc(-c3ccc4nc(C)cn4c3)cc(=O)c2c1 (single isomer, unassigned) , using PI3K-α (PIK3CA) H1047R mutant, p110α/p85α complex (Homo sapiens, UniProt P42336, H1047R) data.
6.00 to 6.30

Please report pIC50 with PI3K-α (PIK3CA) H1047R mutant, p110α/p85α complex (Homo sapiens, UniProt P42336, H1047R) for item Cc1cc([C@@H](C)Nc2ccc(Cl)cc2C(=O)O)c2oc(-c3ccc4c(cnn4C)c3)c(C)c(=O)c2c1 .
> 6.30

Under PI3K-α (PIK3CA) H1047R mutant, p110α/p85α complex (Homo sapiens, UniProt P42336, H1047R), report pIC50 for Cc1cc(C(C)Nc2ccccc2C(=O)O)c2oc(-c3cc4ccncc4o3)cc(=O)c2c1 (single isomer, unassigned) [Example 40]
5.30 to 6.00

Specify the recorded pIC50 for Cc1cc(C(C)Nc2ccccc2C(=O)O)c2oc(-c3ccc4c(c3)CN(C)C4=O)cc(=O)c2c1 (single isomer, unassigned) [Example 31] , system: PI3K-α (PIK3CA) H1047R mutant, p110α/p85α complex (Homo sapiens, UniProt P42336, H1047R).
> 6.30

Lab note: record pIC50 of Cc1cc(C(C)Nc2ccccc2C(=O)O)c2oc(-c3ccc4c(cnn4CC4COC4)c3)cc(=O)c2c1 (single isomer, unassigned) tested on PI3K-α (PIK3CA) H1047R mutant, p110α/p85α complex (Homo sapiens, UniProt P42336, H1047R).
6.00 to 6.30

Give reported pIC50 for COc1ccc2cc(-c3cc(=O)c4cc(C)cc([C@@H](C)Nc5ccccc5C(=O)O)c4o3)cc(C)c2n1 (PI3K-α (PIK3CA) H1047R mutant, p110α/p85α complex (Homo sapiens, UniProt P42336, H1047R))
6.00 to 6.30

Name the recorded pIC50 of Cc1cc(C(C)Nc2ccccc2C(=O)O)c2oc(-c3ccc4nc(C(F)(F)F)cn4c3)cc(=O)c2c1 (single isomer, unassigned) , assay system PI3K-α (PIK3CA) H1047R mutant, p110α/p85α complex (Homo sapiens, UniProt P42336, H1047R).
> 6.30

* * *

// reported pIC50 per item
- System under test: PI3K-α (PIK3CA) H1047R mutant, p110α/p85α complex (Homo sapiens, UniProt P42336, H1047R)
- Construct: Recombinant, catalytically active human full length PIK3KA Wild-type and H1047R mutant; 6×His (N); purchased EMD Millipore Sigma 14-792M
- Test description: PI3K-alpha kinase (PIK3CA) biochemical activity, ADP-Glo, H1047R mutant
- Test parameters: Soy PI lipid substrate
pIC50: −log10 of the molar value.

Cc1cc(C(C)Nc2cccc(F)c2C(=O)O)c2oc(-c3ccc4nn(C)cc4c3)cc(=O)c2c1 (single isomer, unassigned) [Example 171]: 5.30 to 6.00
Cc1cc(C(C)Nc2ccccc2C(=O)O)c2oc(-c3ccc4cc[nH]c4n3)cc(=O)c2c1 (stereo not shown) [Example 14]: > 6.30

State its pIC50: Cc1cc([C@@H](C)Nc2ccc(F)cc2C(=O)O)c2oc(-c3ccc4cnn(C)c4c3)cc(=O)c2c1
> 6.30

Look up and state reported pIC50 for Cc1cc(C(C)Nc2ccccc2C(=O)O)c2oc(-c3ccc4nc(C)cn4c3)c(C#N)c(=O)c2c1 (single isomer, unassigned)
> 6.30

Give a short answer stating reported pIC50 for Cc1cc(C(C)Nc2ccccc2C(=O)O)c2oc(-c3ccc4nccn4n3)cc(=O)c2c1 (single isomer, unassigned) [Example 36] .
> 6.30

Quickly give me recorded pIC50 for Cc1cc(C(C)Nc2ccccc2C(=O)O)c2oc(-n3nnc4ccccc43)cc(=O)c2c1 (single isomer, unassigned)
> 6.30

Indicate the recorded pIC50 value for this compound: Cc1c(-c2ccc3nn(C)cc3c2)oc2c(C(C)Nc3ccccc3C(=O)O)cc(F)cc2c1=O (single isomer, unassigned) [Example 57]
5.30 to 6.00

Give reported pIC50 value for Cc1cc(C(C)Nc2ccccc2C(=O)O)c2oc(-c3ccc4nn(CC(C)(C)O)cc4c3)cc(=O)c2c1 (single isomer, unassigned)
6.00 to 6.30

* * *

- System under test: PI3K-α (PIK3CA) wild-type (WT), p110α/p85α complex (Homo sapiens)
- Construct: Recombinant, catalytically active human full length PIK3KA Wild-type and H1047R mutant; 6×His (N); purchased EMD Millipore Sigma 14-602M
- Test description: PI3K-alpha kinase (PIK3CA) biochemical activity, ADP-Glo, wild-type
- Test parameters: Soy PI lipid substrate
pIC50: −log10 of the molar value.
Result type: pIC50

Recorded pIC50, per entry:
Cc1cn2cc(-c3cc(=O)c4cc(F)cc(C(C)Nc5ccccc5C(=O)O)c4o3)ccc2n1 (single isomer, unassigned): 5.30 to 6.00
Cc1cc([C@@H](C)Nc2cccnc2C(=O)O)c2oc(-c3ccc4nc(C)sc4n3)cc(=O)c2c1: < 5.00
Cc1cc(C(C)Nc2ccc(Cl)nc2C(=O)O)c2oc(-c3cc(C)c4nn(C)cc4c3)cc(=O)c2c1 (single isomer, unassigned): 6.00 to 6.30
Cc1c(-c2ccc3nn(C)cc3c2)oc2c(C(C)Nc3ccccc3C(=O)O)cc(F)cc2c1=O (single isomer, unassigned) [Example 57]: 5.30 to 6.00

Identify measured pIC50 corresponding to Cc1cc(C(C)Nc2ccccc2C(=O)O)c2oc(-c3ccn4c(-c5cccnc5)c(C)nc4c3)cc(=O)c2c1 (single isomer, unassigned)
5.30 to 6.00

For the compound Cc1cc([C@@H](C)Nc2ccc(F)cc2C(=O)O)c2oc(-c3ccc4cnn(C)c4c3)cc(=O)c2c1 , report pIC50.
> 6.30

* * *

- System under test: PI3K-α (PIK3CA) in MDA-MB-453 cells (Homo sapiens)
- Sequence (P27986 2-724): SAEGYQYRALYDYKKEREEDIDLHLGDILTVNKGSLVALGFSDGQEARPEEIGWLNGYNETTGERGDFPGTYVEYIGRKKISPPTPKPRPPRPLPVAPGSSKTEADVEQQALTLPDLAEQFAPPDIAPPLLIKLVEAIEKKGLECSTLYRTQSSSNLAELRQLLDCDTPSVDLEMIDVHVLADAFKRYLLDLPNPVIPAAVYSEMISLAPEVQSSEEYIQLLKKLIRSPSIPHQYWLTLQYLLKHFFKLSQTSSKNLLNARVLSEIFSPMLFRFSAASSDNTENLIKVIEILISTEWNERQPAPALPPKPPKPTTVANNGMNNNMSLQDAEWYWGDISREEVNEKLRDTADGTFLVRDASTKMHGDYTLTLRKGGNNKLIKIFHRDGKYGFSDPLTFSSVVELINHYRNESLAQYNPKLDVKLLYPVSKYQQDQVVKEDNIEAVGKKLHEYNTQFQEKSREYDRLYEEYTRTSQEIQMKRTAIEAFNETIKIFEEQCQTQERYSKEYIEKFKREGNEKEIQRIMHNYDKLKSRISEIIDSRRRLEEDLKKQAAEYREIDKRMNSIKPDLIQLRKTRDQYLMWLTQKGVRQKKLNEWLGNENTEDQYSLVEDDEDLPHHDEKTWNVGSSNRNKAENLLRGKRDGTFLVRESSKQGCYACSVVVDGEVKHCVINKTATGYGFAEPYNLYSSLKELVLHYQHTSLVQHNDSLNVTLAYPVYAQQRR
- Sequence (P42336 whole entry): as the sequence (P42336 whole entry H1047R) above, with R1047H counted along it
- Test description: PI3K-alpha kinase (PIK3CA) in vitro cell based assay, MDA-MB-453 cells, SureFire Ultra AlphaLisa
- Test parameters: read-out: PI3K-α (PIK3CA) in vitro cell based assay IC50
Result type: IC50

Cc1cc([C@@H](C)Nc2ccc(Cl)nc2C(=O)O)c2oc(-c3cc4cnccc4o3)c(C)c(=O)c2c1 [Example 214]: < 50 nM
Cc1cc([C@@H](C)Nc2cccc(F)c2C(=O)O)c2oc(-c3ccc4nn(C)cc4c3)c(C)c(=O)c2c1 [Example 227]: < 50 nM
Cc1cc([C@@H](C)Nc2ccc(C(F)(F)F)cc2C(=O)O)c2oc(-c3ccc4nn(C)cc4c3)c(C)c(=O)c2c1 [Example 235]: 50 to 100 nM
Cc1cc(C(C)Nc2ccccc2C(=O)O)c2oc(-c3ccc4cc[nH]c4n3)cc(=O)c2c1 (single isomer, unassigned) [Example 4]: < 50 nM
Cc1cc([C@@H](C)Nc2cccnc2C(=O)O)c2oc(-c3nn(C)c4ccccc34)cc(=O)c2c1 [Example 232]: 100 to 500 nM
Cc1cc(C(C)Nc2ccccc2C(=O)O)c2oc(-c3ccc4c(c3)c(C)nn4C)cc(=O)c2c1 (single isomer, unassigned) [Example 59]: < 50 nM

Report IC50 from PI3K-α (PIK3CA) in MDA-MB-453 cells (Homo sapiens) testing of COc1ccc2cc(-c3cc(=O)c4cc(C)cc([C@@H](C)Nc5ccccc5C(=O)O)c4o3)cc(C)c2n1 [Example 248]
100 to 500 nM

Report IC50 under test system PI3K-α (PIK3CA) in MDA-MB-453 cells (Homo sapiens) for Cc1cc(C(C)Nc2ccc(Cl)nc2C(=O)O)c2oc(-c3ccc4cnn(C)c4c3)cc(=O)c2c1 (single isomer, unassigned) [Example 220] .
< 50 nM

Please tell me the measured IC50 for Cc1cc(C(C)Nc2ccccc2C(=O)O)c2oc(-c3ccc4cn(C)nc4c3)cc(=O)c2c1 (single isomer, unassigned) [Example 1] ; system: PI3K-α (PIK3CA) in MDA-MB-453 cells (Homo sapiens).
50 to 100 nM

Write down the reported IC50 (system: PI3K-α (PIK3CA) in MDA-MB-453 cells (Homo sapiens)) of Cc1cc(C(C)Nc2ccccc2C(=O)O)c2oc(-c3cnc4ccccn34)cc(=O)c2c1 (single isomer, unassigned) [Example 145]
100 to 500 nM

Provide the reported IC50 (system: PI3K-α (PIK3CA) in MDA-MB-453 cells (Homo sapiens)) for Cc1cc(C(C)Nc2ccc(Cl)nc2C(=O)O)c2oc(-c3ccc4cc[nH]c4n3)cc(=O)c2c1 (centres unmarked) [Example 195]
< 50 nM

// fetch IC50 for Cc1cc([C@@H](C)Nc2cccc(F)c2C(=O)O)c2oc(-c3ccc4nc(C)sc4n3)cc(=O)c2c1 [Example 257] ; system: PI3K-α (PIK3CA) in MDA-MB-453 cells (Homo sapiens)
< 50 nM

Identify measured IC50 obtained with PI3K-α (PIK3CA) in MDA-MB-453 cells (Homo sapiens) for Cc1cc([C@@H](C)Nc2cccnc2C(=O)O)c2oc(-c3ccc4nc(C)sc4n3)c(C)c(=O)c2c1 [Example 243] .
100 to 500 nM

Write down measured IC50 (PI3K-α (PIK3CA) in MDA-MB-453 cells (Homo sapiens)) for this compound. Cc1cc(C(C)Nc2ccccc2C(=O)O)c2oc(-c3cnc4cc[nH]c4c3)cc(=O)c2c1 (single isomer, unassigned) [Example 71]
100 to 500 nM

Under PI3K-α (PIK3CA) in MDA-MB-453 cells (Homo sapiens), report IC50 for Cc1cc(C(C)Nc2ccccc2C(=O)O)c2oc(-c3cnc4c(c3)OCCO4)cc(=O)c2c1 (single isomer, unassigned) [Example 163]
50 to 100 nM

Quote IC50 with test system PI3K-α (PIK3CA) in MDA-MB-453 cells (Homo sapiens) for CC(Nc1ccc(Cl)nc1C(=O)O)c1cc(C(F)(F)F)cc2c(=O)cc(-c3ccc4cnn(C)c4c3)oc12 (single isomer, unassigned) [Example 108]
< 50 nM

Specify the recorded IC50 for Cc1cc([C@@H](C)Nc2ccc(C)nc2C(=O)O)c2oc(-c3ccc4nc(C)sc4n3)c(C)c(=O)c2c1 [Example 265] , system: PI3K-α (PIK3CA) in MDA-MB-453 cells (Homo sapiens).
50 to 100 nM

Provide measured IC50 on PI3K-α (PIK3CA) in MDA-MB-453 cells (Homo sapiens) for Cc1cc(C(C)Nc2ccccc2C(=O)O)c2oc(-c3cc(F)c4nn(C)cc4c3)cc(=O)c2c1 (single isomer, unassigned) [Example 97] please.
< 50 nM

Report value only: IC50, PI3K-α (PIK3CA) in MDA-MB-453 cells (Homo sapiens), Cc1cc(C(C)Nc2ccccc2C(=O)O)c2oc(-c3ccc4nc(C)sc4c3)cc(=O)c2c1 (single isomer, unassigned) [Example 74]
< 50 nM

Consider the compound Cc1cc(C(C)Nc2ccccc2C(=O)O)c2oc(-c3cnc4nn(C)cc4c3)cc(=O)c2c1 (centres unmarked) [Example 9] tested on PI3K-α (PIK3CA) in MDA-MB-453 cells (Homo sapiens); state its IC50.
> 500 nM

Specify IC50 for Cc1cc(C(C)Nc2ccccc2C(=O)O)c2oc(-c3cc4cnccc4o3)cc(=O)c2c1 (single isomer, unassigned) [Example 22] , system PI3K-α (PIK3CA) in MDA-MB-453 cells (Homo sapiens).
< 50 nM

State IC50 (PI3K-α (PIK3CA) in MDA-MB-453 cells (Homo sapiens)) of Cc1cc(C(C)Nc2ccccc2C(=O)O)c2oc(-c3ccn4cc(C)nc4c3)cc(=O)c2c1 (single isomer, unassigned) [Example 3] .
50 to 100 nM

State IC50 (PI3K-α (PIK3CA) in MDA-MB-453 cells (Homo sapiens)) of Cc1cc([C@@H](C)Nc2cccnc2C(=O)O)c2oc(-c3nn(C)c4ccccc34)c(C)c(=O)c2c1 [Example 205] .
50 to 100 nM

Consider the compound Cc1cc(C(C)Nc2ccccc2C(=O)O)c2oc(-c3cnn4cccnc34)cc(=O)c2c1 (single isomer, unassigned) [Example 34] tested on PI3K-α (PIK3CA) in MDA-MB-453 cells (Homo sapiens); state its IC50.
50 to 100 nM

Answer briefly: IC50 recorded on PI3K-α (PIK3CA) in MDA-MB-453 cells (Homo sapiens) for Cc1cc([C@@H](C)Nc2cccnc2C(=O)O)c2oc(-c3cc(C)c4nn(C)cc4c3)cc(=O)c2c1 [Example 231]
100 to 500 nM

Supply IC50 measured with PI3K-α (PIK3CA) in MDA-MB-453 cells (Homo sapiens) for Cc1cc(C(C)Nc2ccccc2C(=O)O)c2oc(-c3ccc4[nH]nc(C)c4c3)cc(=O)c2c1 (single isomer, unassigned) [Example 61] .
50 to 100 nM
